Values from patent US20250034594A1

This section presents molecules with their documented Editing Efficiency (Absolute, Average, two targets) values.
# Test system: endogenous genome targets (ACTB, HSP90AA1)
# assay: Arrayed SSAP library screening, mKate knock-in assay (editing efficiency)
# Type: cell-based
# condition-label: percent of mKate knock-in; average of HSP90 and ACTB; 3 days after transfection
reported-metric: Editing Efficiency (Absolute, Average, two targets)

INSERT INTO results (molecule, value_reported) VALUES
  ('SSAP_15: SEQ ID NO: 184 (protein) AKNELAKGSYLTDLQKLDGNTLRDFVDPKHQASPQELQALLAIVKGRNLNPFTKEVYFIKYGSAPAQIVVSKEAIMKRAEENPDFDGFEAGIVVETKDGAIERLTGTIVPKSATLRGGWCKVYRKDRSHAIEADADFAYYTTSKNLWQKMPALMIRKVAIVSAFREAFSESVGGLYTADEMQRETQAEVRARKMKEAYEEKLYLLTQMEAKSYKKTKSKNENEAKKTKEAEAIETVEEPTQDGNLEW', 13.55),
  ('SSAP_262: SEQ ID NO: 431; YqaK Schleiferilactobacillus shenzhenensis LY-73 (protein, listed as Schleiferilactobacillus shenzhenensis) SAVSESKDLQHVDQLSVLNSAMTAASLNLPINQNLGFFYLVPYKGIAQAQMGYKGYIQLAQRSGQYQRLNAIPVYADEFGSWNPLTEELDYTPHFEDRKASDKPVGYVGFFKLANGFEKTVYWSRKQIEAHRDRFSKSSKSSASPWNTDFDAMALKTVLRNLITKWGPMTTDIQRANDADEGDYKNDLSTDTSEPKDVTPGASLEQFLGETDQQQKPATKPAPKKKAEEAKPNDLKPDVTHDPNEHTEQTSLSDDDLPFD', 9.1025);
